// reported IMAX per item
- Tested on: GR complex
- assayText: [35S]TBPS binding assay (inhibition of [35S]TBPS binding, cerebral cortex P2 homogenate)
- Parameters: species or system rat
- particulars: maximum inhibition of [35S]TBPS binding
Your answer should be a plain number; it is taken to be in %.

# compound, unitOfMeasure, testValue
measured = [
    ("C[C@]12CC[C@@H](O)C[C@H]1CC[C@@H]1[C@@H]2CC[C@]2(C)[C@@H](C(=O)Cn3ncnn3)CC[C@@H]12", "%", 78),
    ("CC(=O)[C@H]1CC[C@H]2[C@@H]3CC[C@@H]4C[C@@](O)(C#CCc5ccccc5)CC[C@]4(C)[C@H]3CC[C@]12C", "%", 95),
    ("CC12CCC3C4CCC(O)(C(F)(F)F)CC4CCC3C1CCC2C(=O)CSS(=O)(=O)[O-].[Na+] (stereo not shown)", "%", 98),
    ("CC12CCC(O)CC1CCC1C2CCC2(C)C(C(=O)Cn3cnc4ccccc43)CCC12 (stereo not shown)", "%", 100),
    ("C[C@]12CC[C@@H](O)C[C@H]1CC[C@@H]1[C@@H]2CC[C@]2(C)[C@@H](C(=O)Cn3cnc4cncnc43)CC[C@@H]12", "%", 59),
    ("CC(=O)[C@H]1CC[C@H]2[C@@H]3CC[C@@H]4C[C@@](O)(C#Cc5ccc([N+](=O)[O-])cc5)CC[C@]4(C)[C@H]3CC[C@]12C", "%", 103),
    ("C[C@]12CC[C@](O)(C#CCCO)C[C@H]1CC[C@@H]1[C@@H]2CC[C@]2(C)[C@@H](C(=O)Cn3ccnn3)CC[C@@H]12", "%", 96),
    ("CC(=O)c1ccc(C#CC2(O)CCC3(C)C(CCC4C3CCC3(C)C(C(=O)CO)CCC43)C2)cc1 (stereo not shown)", "%", 92),
    ("COc1ccc(C#CC2(O)CCC3(C)C(CCC4C3CCC3(C)C(C(C)=O)CCC43)C2)cc1OC (stereo not shown)", "%", 106),
    ("CC(=O)OCC(=O)c1ccc(C#C[C@@]2(O)CC[C@@]3(C)[C@H](CC[C@@H]4[C@@H]3CC[C@]3(C)[C@@H](C(C)=O)CC[C@@H]43)C2)cc1", "%", 91),
]

Lab note: `CC(=O)[C@H]1CC[C@H]2[C@@H]3CC[C@@H]4C[C@@](O)(C#CCCCC#N)CC[C@]4(C)[C@H]3CC[C@]12C` gave IMAX of 100

Lab note: CC12CCC(O)CC1CCC1C2CCC2(C)C(C(=O)Cn3ccnc3C=O)CCC12 (stereo not shown) gave IMAX of 81

Lab note: `CC(=O)c1ccc(C#C[C@@]2(O)CC[C@@]3(C)[C@H](CC[C@@H]4[C@@H]3CC[C@]3(C)[C@@H](C(=O)CO)CC[C@@H]43)C2)cc1` gave IMAX of 99

---

- Tested on: GR complex
- assayText: [35S]TBPS binding assay (inhibition of [35S]TBPS binding, cerebral cortex P2 homogenate)
- Set-up: species or system rat
- particulars: maximum inhibition of [35S]TBPS binding
// reported IMAX per item

Past entries and their recorded results:
# compound, IMAX
measured = [
    ("CC(=O)[C@H]1CC[C@H]2[C@@H]3CC[C@@H]4C[C@@](O)(C#CCn5cccn5)CC[C@]4(C)[C@H]3CC[C@]12C", "98%"),
    ("CCN(CC)C(=O)c1ccc(C#CC2(O)CCC3(C)C(CCC4C3CCC3(C)C(C(C)=O)CCC43)C2)cc1 (stereo not shown)", "94%"),
    ("C[C@]12CC[C@@H](O)C[C@@H]1CC[C@@H]1[C@@H]2CC[C@]2(C)[C@@H](C(=O)CSS(=O)(=O)[O-])CC[C@@H]12.[Na+]", "90%"),
    ("CC(=O)[C@H]1CC[C@H]2[C@@H]3CC[C@@H]4C[C@@](O)(C#CCCC#N)CC[C@]4(C)[C@H]3CC[C@]12C", "86%"),
    ("CC12CCC(O)(C#CCO)CC1CCC1C2CCC2(C)C(C(=O)Cn3nccn3)CCC12 (stereo not shown)", "107%"),
]

Lab note: `CC(=O)[C@H]1CC[C@H]2[C@@H]3CC[C@@H]4C[C@@](O)(C#Cc5ccc(C(N)=O)cc5)CC[C@]4(C)[C@H]3CC[C@]12C` gave IMAX of 98%

Lab note: CC(=O)c1ccc(C#CC2(O)CCC3C(CCC4C3CCC3(C)C(C(C)=O)CCC43)C2)cc1 (stereo not shown) gave IMAX of 103%
